system: YT (IL-2 2.5 ng/mL); assay: percent inhibition of viability; higher = more inhibition; settings: 72 h; 25 nM
Value Type: percent inhibition of viability (%)
# unit: % | format: bare number

Compound: COc1cc2nccc(Oc3ccc(NC(=O)NC4CC4)c(Cl)c3)c2cc1C(N)=O [Lenvatinib] (max concentration tested 2500 nM)
Target System: YT (IL-2 2.5 ng/mL)
Value Measured: -3.92

The reported percent inhibition of viability of the compound COc1cc(C(=O)NC2CCN(C)CC2)c(F)cc1Nc1ncc2c(n1)N(C1CCCC1)CC(F)(F)C(=O)N2C [TAK-960] (max concentration tested 2500 nM) was 8.79

The reported percent inhibition of viability of the compound OCCn1cc(-c2cnc3nnn(Cc4ccc5ncccc5c4)c3n2)cn1 (max concentration tested 2500 nM) was -6.34

The reported percent inhibition of viability of the compound Nc1nc(NC2CC2)cc(-c2cccc(Cl)c2Cl)n1 [TH588] (max concentration tested 25000 nM) was -2.09

###

system: SNK-6 (IL-2 2.5 ng/mL); assay: percent inhibition of viability; higher = more inhibition; details: 72 h; 25 nM
Measured percent inhibition of viability, listed per entry.
# unit: % | format: bare number

Compound: O=C(c1cccc(Cl)c1F)N1CCN(Cc2cccc(Nc3nccs3)n2)CC1 [MK-8745] (max concentration tested 2500 nM)
Result Units: %
Value Measured: -4.8
//
Compound: NC(=O)Nc1sc(-c2ccc(F)cc2)cc1C(N)=O [TPCA-1] (max concentration tested 25000 nM)
Result Units: %
Value Measured: -19.3
//
Compound: OCCn1cc(-c2cnc3nnn(Cc4ccc5ncccc5c4)c3n2)cn1 (max concentration tested 2500 nM)
Result Units: %
Value Measured: -15.8

Considering CCn1nnc2c(N3CCOCC3)nc(-c3ccc(NC(=O)Nc4ccc(C(=O)N5CCN(C)CC5)cc4)cc3)nc21 [PKI-402] (max concentration tested 2500 nM) , its percent inhibition of viability with SNK-6 (IL-2 2.5 ng/mL) was recorded as -7.51

Considering COc1cc2nccc(Oc3ccc(NC(=O)NC4CC4)c(Cl)c3)c2cc1C(N)=O [Lenvatinib] (max concentration tested 2500 nM) , its percent inhibition of viability with SNK-6 (IL-2 2.5 ng/mL) was recorded as -21.9

###

Measured relative IC50, listed per entry.
test system: DERL-7 (IL-2 2.5 ng/mL); test: relative IC50 (inflection point of fitted viability curve, relative to fitted max inhibition); higher = less sensitive; conditions: 72 h
# unit: µM | format: bare number

Solved cases (5 shown):
Chem Smiles: CC(=O)[C@]1(O)Cc2c(O)c3c(c(O)c2[C@@H](O[C@H]2C[C@H](N)[C@H](O)[C@H](C)O2)C1)C(=O)c1ccccc1C3=O
relative IC50, µM: 0.00626

Chem Smiles: Cc1c(NC(=O)OC[C@@H]2COCCN2)cn2ncnc(Nc3ccc4c(cnn4Cc4cccc(F)c4)c3)c12
relative IC50, µM: 2.73

Chem Smiles: O=[N+]([O-])c1ccc2c(c1)S(=O)(=O)C=C2
relative IC50, µM: 1.22

Chem Smiles: COc1ccc(S(=O)(=O)Nc2cccnc2Nc2ccc(O)cc2)cc1
relative IC50, µM: 0.294

Chem Smiles: CN1CCN(CCOc2cc(OC3CCOCC3)c3c(Nc4c(Cl)ccc5c4OCO5)ncnc3c2)CC1
relative IC50, µM: 1.59

Would you kindly look at the next entry?
Considering O=C(NOC[C@H](O)CO)c1ccc(F)c(F)c1Nc1ccc(I)cc1F , its relative IC50 with DERL-7 (IL-2 2.5 ng/mL) was recorded as 0.01

###

Measured percent inhibition of viability, listed per entry.
test system: YT (IL-2 2.5 ng/mL); test: percent inhibition of viability; higher = more inhibition; settings: 72 h; 100 nM
# unit: % | format: bare number

Compound: CN1CCN(CCOc2cc(OC3CCOCC3)c3c(Nc4c(Cl)ccc5c4OCO5)ncnc3c2)CC1 [Saracatinib] (max concentration tested 10000 nM)
Target System: YT (IL-2 2.5 ng/mL)
percent inhibition of viability [%]: -0.94

Compound: CC(=O)[C@]1(O)Cc2c(O)c3c(c(O)c2[C@@H](O[C@H]2C[C@H](N)[C@H](O)[C@H](C)O2)C1)C(=O)c1ccccc1C3=O [Idarubicin] (max concentration tested 1000 nM)
Target System: YT (IL-2 2.5 ng/mL)
percent inhibition of viability [%]: 100

Compound: Cc1nc(Nc2ncc(C(=O)Nc3c(C)cccc3Cl)s2)cc(N2CCN(CCO)CC2)n1 [Dasatinib] (max concentration tested 1000 nM)
Target System: YT (IL-2 2.5 ng/mL)
percent inhibition of viability [%]: 23

Compound: Cc1c(NC(=O)OC[C@@H]2COCCN2)cn2ncnc(Nc3ccc4c(cnn4Cc4cccc(F)c4)c3)c12 (max concentration tested 10000 nM)
Target System: YT (IL-2 2.5 ng/mL)
percent inhibition of viability [%]: 4.74

Compound: CNCc1ccc(-c2[nH]c3cc(F)cc4c3c2CCNC4=O)cc1 [Rucaparib] (max concentration tested 10000 nM)
Target System: YT (IL-2 2.5 ng/mL)
percent inhibition of viability [%]: -3.45

Would you kindly look at the next entry?
The reported percent inhibition of viability of the compound Cn1cncc1[C@@](N)(c1ccc(Cl)cc1)c1ccc2c(c1)c(-c1cccc(Cl)c1)cc(=O)n2C [Tipifarnib] (max concentration tested 10000 nM) was 34.3

###

Measured percent inhibition of viability, listed per entry.
test system: NK-92 (IL-2 2.5 ng/mL); assay: percent inhibition of viability; higher = more inhibition; conditions: 72 h; 1 nM
# unit: % | format: bare number

Compound: COc1ccc(COc2cc3oc(=O)c4cc(C(C)O)ccc4c3cc2OC)cc1 (centres undefined) [Palomid-529] (max concentration tested 10000 nM)
Target System: NK-92 (IL-2 2.5 ng/mL)
Value Type: percent inhibition of viability
Result Units: %
Value Measured: -6.63

Compound: CO[C@H]1C[C@@H]2CC[C@@H](C)[C@@](O)(O2)C(=O)C(=O)N2CCCC[C@H]2C(=O)O[C@H]([C@H](C)C[C@@H]2CC[C@@H](O)[C@H](OC)C2)CC(=O)[C@H](C)/C=C(\C)[C@@H](O)[C@@H](OC)C(=O)[C@H](C)C[C@H](C)/C=C/C=C/C=C/1C [Sirolimus] (max concentration tested 100 nM)
Target System: NK-92 (IL-2 2.5 ng/mL)
Value Type: percent inhibition of viability
Result Units: %
Value Measured: 10.4

Compound: CC[C@@H]1C(=O)N(C)c2cnc(Nc3ccc(C(=O)N[C@H]4CC[C@H](N5CCN(CC6CC6)CC5)CC4)cc3OC)nc2N1C(C)C [Volasertib] (max concentration tested 1000 nM)
Target System: NK-92 (IL-2 2.5 ng/mL)
Value Type: percent inhibition of viability
Result Units: %
Value Measured: -9.97

Compound: O=C(Nc1c[nH]nc1-c1nc2ccc(CN3CCOCC3)cc2[nH]1)NC1CC1 [AT9283] (max concentration tested 1000 nM)
Target System: NK-92 (IL-2 2.5 ng/mL)
Value Type: percent inhibition of viability
Result Units: %
Value Measured: 8.69

Compound: O=C(c1cc(Cc2n[nH]c(=O)c3ccccc23)ccc1F)N1CCN(C(=O)C2CC2)CC1 [Olaparib] (max concentration tested 10000 nM)
Target System: NK-92 (IL-2 2.5 ng/mL)
Value Type: percent inhibition of viability
Result Units: %
Value Measured: 4.94

The reported percent inhibition of viability of the compound O=C(NC1CCNCC1)c1n[nH]cc1NC(=O)c1c(Cl)cccc1Cl [AT7519] (max concentration tested 10000 nM) was -10.5

The reported percent inhibition of viability of the compound CN1CCN(CCOc2cc(OC3CCOCC3)c3c(Nc4c(Cl)ccc5c4OCO5)ncnc3c2)CC1 [Saracatinib] (max concentration tested 10000 nM) was -2.32

The reported percent inhibition of viability of the compound CN(C)Cc1ccc(S(=O)(=O)n2ccc(/C=C/C(=O)NO)c2)cc1 [Resminostat] (max concentration tested 10000 nM) was -4.22

The reported percent inhibition of viability of the compound CC[C@H](CO)Nc1nc(NCc2ccccc2)c2ncn(C(C)C)c2n1 [Seliciclib] (max concentration tested 10000 nM) was -2.72

###

tested on: normal primary NK cells, pool 2 (3 donors) (IL-2 2.5 ng/mL); assay: percent inhibition of viability; higher = more inhibition; conditions: 72 h; 25 nM
Measured percent inhibition of viability, listed per entry.
# unit: % | format: bare number

Solved cases (3 shown):
Molecule: O=C(c1cccc(Cl)c1F)N1CCN(Cc2cccc(Nc3nccs3)n2)CC1 [MK-8745] (max concentration tested 2500 nM)
Result Units: %
Value Measured: -12.7

Molecule: OCCn1cc(-c2cnc3nnn(Cc4ccc5ncccc5c4)c3n2)cn1 (max concentration tested 2500 nM)
Result Units: %
Value Measured: 5.1

Molecule: CCCCCCCCCCCCCCCCCCOP(=O)([O-])OC1CC[N+](C)(C)CC1 [Perifosine] (max concentration tested 2500 nM)
Result Units: %
Value Measured: -0.26

The reported percent inhibition of viability of the molecule CCNC(=O)Nc1ccc(-c2nc3c(c(N4CCOC[C@@H]4C)n2)CCN(C2COC2)C3)cc1 [RG-7603] (max concentration tested 2500 nM) was -7.06

The reported percent inhibition of viability of the molecule CCCNC(=O)Nc1ccc(Oc2ncnc3cc(OC)c(OC)cc23)cc1Cl [KRN-633] (max concentration tested 2500 nM) was 1.17

The reported percent inhibition of viability of the molecule Cc1cc(Nc2ncc(Cl)c(Nc3ccccc3S(=O)(=O)C(C)C)n2)c(OC(C)C)cc1C1CCNCC1 [Ceritinib] (max concentration tested 2500 nM) was -12.5

The reported percent inhibition of viability of the molecule NC(=O)Nc1sc(-c2ccc(F)cc2)cc1C(N)=O [TPCA-1] (max concentration tested 25000 nM) was -4.41

The reported percent inhibition of viability of the molecule CN1CCN(C2CCN(C(=O)Nc3cc(Oc4ccc(NC(=O)C5(C(=O)Nc6ccc(F)cc6)CC5)c(F)c4)ccn3)CC2)CC1 [Golvatinib] (max concentration tested 2500 nM) was 11.2

// data source = the supplement of paper PMC5908809
